System: Mus musculus
test method notes: Toxicity tested in mouse and expressed as number of dead mouse / number of mouse used after a dose of 1.0 g/kg perorally; ++ moderate toxicity
Type: organism-based
measurement setup: in vivo, po, 1000 mg/kg
result type: Acute toxicity

[[record]]
compound = "CCOc1cc(N)c(Cl)cc1C(=O)NCC1CN(Cc2cccc(Cl)c2)CCO1 (stereo not given)"
reading = "moderate toxicity"

[[record]]
compound = "COc1cc(N)c(Cl)cc1C(=O)NCC1CN(Cc2ccc(Cl)cc2)CCO1 (stereo not given)"
reading = "moderate toxicity"

[[record]]
compound = "CCOc1cc(N)c(Cl)cc1C(=O)NCC1CN(Cc2ccc(F)cc2)CCO1 (stereo not given) [MOSAPRIDE]"
reading = "Partially active"

[[record]]
compound = "COc1cc(N)c(Cl)cc1C(=O)NCC1CN(Cc2cccc(C(F)(F)F)c2)CCO1 (stereo not given)"
reading = "moderate toxicity"


# input for lookup
Query :: Find Acute toxicity (Mus musculus) for the entry COc1cc(N)c(Cl)cc1C(=O)NCC1CN(Cc2ccccc2)CCO1 (stereo not given)
Result :: Partially active

###

Tested on: Mus musculus
test method notes: Gastric emptying of phenol red semisolid meal in mouse at the dose of 0.5 mg/kg administered perorally.
Assay type: functional
measurement setup: route oral
Below: a set of entries, each annotated with reported GE.
Report the figure along with its unit, number first.

Known results for compounds:
[[record]]
compound = "CCOc1cc(N)c(Cl)cc1C(=O)NCC1CN(Cc2ccccc2)CCO1 (stereo not drawn)"
reading = "35%"

[[record]]
compound = "CCOc1cc(NC(C)=O)c(Cl)cc1C(=O)NCC1CN(Cc2ccc(F)cc2)CCO1 (stereo not drawn)"
reading = "75%"


Query :: Find GE (Mus musculus) for the entry CCOc1cc(N)c(Cl)cc1C(=O)NCC1CN(Cc2ccc(Cl)cc2)CCO1 (stereo not drawn)
Result :: 0%

Query :: And then CCOc1cc(N)c(Cl)cc1C(=O)NCC1CN(Cc2cccc(C(F)(F)F)c2)CCO1 (stereo not drawn) , what is it?
Result :: 4%

Query :: And then CCOc1cc(N)c(Cl)cc1C(=O)NCC1CN(Cc2ccc(F)cc2F)CCO1 (stereo not drawn) , what is it?
Result :: 83%

Query :: And then COc1cc(N)c(Cl)cc1C(=O)NCC1CN(Cc2ccc(C#N)cc2)CCO1 (stereo not drawn) , what is it?
Result :: 15%

Query :: And then CCOc1cc(N)c(Cl)cc1C(=O)NCC1CN(Cc2ccc(F)cc2)CCO1 (stereo not drawn) [MOSAPRIDE] , what is it?
Result :: 44%

Query :: And then COc1cc(N)c(Cl)cc1C(=O)NCC1CN(Cc2ccccc2)CCO1 (stereo not drawn) , what is it?
Result :: 41%

###

Below: a set of entries, each annotated with reported GE.
Tested on: Rattus norvegicus
test method notes: Gastric emptying of resin solid meal in rats at the dose of 2.0 mg/kg administered perorally.
Format: functional
measurement setup: route oral
The answer is to be given in %; state only the numeric part.

[[record]]
compound = "CCOc1cc(N)c(Cl)cc1C(=O)NCC1CN(Cc2ccccc2)CCO1 (stereo not drawn)"
reading = 58


Query :: Which GE is listed for CCOc1cc(N)c(Cl)cc1C(=O)NCC1CN(Cc2ccc(Cl)cc2)CCO1 (stereo not drawn) ?
Result :: 65

Query :: And then CCOc1cc(N)c(Cl)cc1C(=O)NCC1CN(Cc2ccc(F)cc2F)CCO1 (stereo not drawn) , what is it?
Result :: 76

Query :: And then COc1cc(N)c(Cl)cc1C(=O)NCC1CN(Cc2ccccc2)CCO1 (stereo not drawn) , what is it?
Result :: 16

Query :: And then COc1cc(N)c(Cl)cc1C(=O)NCC1CN(Cc2ccc(C#N)cc2)CCO1 (stereo not drawn) , what is it?
Result :: 36

Query :: And then CCOc1cc(N)c(Cl)cc1C(=O)NCC1CN(Cc2cccc(C(F)(F)F)c2)CCO1 (stereo not drawn) , what is it?
Result :: 22

Query :: And then CCOc1cc(N)c(Cl)cc1C(=O)NCC1CN(Cc2ccc(F)cc2)CCO1 (stereo not drawn) [MOSAPRIDE] , what is it?
Result :: 79

Query :: And then CCOc1cc(NC(C)=O)c(Cl)cc1C(=O)NCC1CN(Cc2ccc(F)cc2)CCO1 (stereo not drawn) , what is it?
Result :: 0
